target system: T1, IL-18 receptor (IL-18Rαβ) on cells (UniProt Q13478 19-541; O95256 20-599, limits assumed)
T1 sequence (looked up) 1: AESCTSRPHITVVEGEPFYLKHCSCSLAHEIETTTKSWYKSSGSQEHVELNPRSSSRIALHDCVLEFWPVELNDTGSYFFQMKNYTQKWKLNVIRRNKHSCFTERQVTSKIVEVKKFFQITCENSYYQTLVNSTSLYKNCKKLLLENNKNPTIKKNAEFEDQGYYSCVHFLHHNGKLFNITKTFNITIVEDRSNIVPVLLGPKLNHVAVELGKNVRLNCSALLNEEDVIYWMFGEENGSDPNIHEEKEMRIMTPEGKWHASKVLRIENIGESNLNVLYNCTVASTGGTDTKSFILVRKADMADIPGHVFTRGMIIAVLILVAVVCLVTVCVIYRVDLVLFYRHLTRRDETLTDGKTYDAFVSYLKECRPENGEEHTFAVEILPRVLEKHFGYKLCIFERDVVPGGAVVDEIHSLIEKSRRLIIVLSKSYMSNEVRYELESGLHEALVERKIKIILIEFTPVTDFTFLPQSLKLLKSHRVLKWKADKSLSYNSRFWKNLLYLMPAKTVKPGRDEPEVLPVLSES
T1 sequence (looked up) 2: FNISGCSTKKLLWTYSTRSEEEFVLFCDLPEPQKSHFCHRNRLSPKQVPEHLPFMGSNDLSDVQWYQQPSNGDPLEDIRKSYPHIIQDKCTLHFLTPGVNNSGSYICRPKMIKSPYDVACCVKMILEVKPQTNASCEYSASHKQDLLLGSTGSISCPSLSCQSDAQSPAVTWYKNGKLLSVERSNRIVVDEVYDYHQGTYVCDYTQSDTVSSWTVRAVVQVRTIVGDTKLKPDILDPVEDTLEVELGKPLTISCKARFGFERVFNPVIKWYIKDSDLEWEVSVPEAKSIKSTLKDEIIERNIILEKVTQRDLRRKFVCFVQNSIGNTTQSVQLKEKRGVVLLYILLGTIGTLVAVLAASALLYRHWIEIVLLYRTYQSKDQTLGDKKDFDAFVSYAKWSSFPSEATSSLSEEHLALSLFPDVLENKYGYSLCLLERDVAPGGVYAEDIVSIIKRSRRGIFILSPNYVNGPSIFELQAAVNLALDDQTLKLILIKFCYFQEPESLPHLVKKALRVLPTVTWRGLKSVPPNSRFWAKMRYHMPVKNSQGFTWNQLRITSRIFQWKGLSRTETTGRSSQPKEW
experiment summary: cell-based or functional assay
Property: Fold potency loss vs C086; scope: individual binders

>  <binder>
C172 (ligand) YFGKLKSKLSIIRNLNDQVLFIDQGNRPLFEDMTDSDARDNAPRTIFIISMYADSQPRGMAVAISVKCEKISTLSAENKIISFKEMNPPDNIKDTKSDIIFFQRSVPGHDNKMQFESSSYEGYFLAAEKERDLFKLILKKEDELGDRSIMFTVQNESGGPGPAGMKGLPGSNIVPVLLGPKLNHVAVELGKNVRLNCSALLNEEDVIYWMFGEENGSDPNIHEEKEMRIMTPEGKWHASKVLRIENIGESNLNVLYNCTVASTGGTDTKSFILVRKADHHHHHH

>  <Fold potency loss vs C086, fold>
26

$$$$
>  <binder>
C191 (ligand) YFGKLKSKLSIIRNLNDQVLFIDQGNRPLFEDMTDSDARDNAPRTIFIISMYADSQPRGMAVAISVKCEKISTLSAENKIISFKEMNPPDNIKDTKSDIIFFQRSVPGHDNKMQFESSSYEGYFLAAEKERDLFKLILKKEDELGDRSIMFTVQNESGGPLGLAGGSNIVPVLLGPKLNHVAVELGKNVRLNCSALLNEEDVIYWMFGEENGSDPNIHEEKEMRIMTPEGKWHASKVLRIENIGESNLNVLYNCTVASTGGTDTKSFILVRKADHHHHHH

>  <Fold potency loss vs C086, fold>
48

$$$$
